# systemTested: IRAK4 (Homo sapiens)
# Construct: His (N); TEV cleavage site (N)
# assay: IRAK4 Enzymatic Assay
# assaySetup: His-TEV-IRAK4 20 ng/well, ATP 2 μM, STK1-biotin peptide 300 nM, 3 hours at 30° C., FlashPlate radioactivity
pIC50: −log10 of the molar value. Structures can show the parent of a compound that is named as a salt.
Give pIC50 for every item shown.

Please review the entries below; each comes with its answer.
COCCC(=O)N[C@H]1CC[C@@H](n2cc(-c3cnc(-c4cccc(-c5cnn(C)c5)c4)nc3)cn2)CC1 ... 6.00 to 7.00
Cn1cc(-c2cccc(-c3ncc(-c4cnn([C@H]5C=C[C@@H](O)C5)c4)cn3)c2)cn1 ... 6.00 to 7.00
CC(=O)N1CC[C@@H](n2cc(-c3cnc(-c4cccc(-c5cnn(C)c5)c4)nc3)cn2)[C@H](O)C1 (single isomer, unassigned) [Example 201] ... 6.00 to 7.00
Cn1cc(-c2cccc(-c3ncc(-c4cnn([C@@H]5CC[C@@]6(CO)COC[C@@]6(O)C5)c4)cn3)c2)cn1 (single isomer, unassigned) ... 6.00 to 7.00
CN(C)C(=O)[C@H]1CC[C@@H](n2cc(-c3cnc(-c4cccc(-c5cnn(C)c5)c4)nc3)cn2)CC1 ... 6.00 to 7.00

Dear reader, for each entry below, please note its pIC50.
1. CC1COCCC1N1CCC(n2cc(-c3cnc(-c4cccc(-c5cnn(C)c5)c4)nc3)cn2)CC1 (centres unmarked)
2. Cn1cc(-c2cccc(-c3ncc(-c4cnn([C@@H]5CCC[S@@+]([O-])C5)c4)cn3)c2)cn1 (racemic)
3. Cn1cc(-c2cccc(-c3ncc(-c4cnn(CC(=O)N5CCC5)c4)cn3)c2)cn1
4. Cn1cc(-c2cccc(-c3ncc(-c4cn(C5CCOCC5)nc4C(=O)N4CC(O)C4)cn3)c2)cn1

> 7.00
6.00 to 7.00
6.00 to 7.00
5.30 to 6.00

Dear reader, for each entry below, please note its pIC50.
1. Cn1cc(-c2cccc(-c3ncc(-c4cnn([C@@H]5CCNC[C@@H]5F)c4)cn3)c2)cn1 (relative stereo)
2. COc1ccc(CCn2cc(-c3cnc(-c4cccc(-c5cnn(C)c5)c4)nc3)cn2)cc1OC
3. Cc1cc(-c2cccc(-c3ncc(-c4cnn([C@H]5CC[C@H](C(=O)N(C)C)CC5)c4)cn3)c2)ccn1
4. c1cncc(-c2cccc(-c3ncc(-c4cnn(C5CCNCC5)c4)cn3)c2)c1 [Example 2, hydrochloride]
5. CN(C)C(=O)[C@H]1C[C@H]2COC[C@@H](C1)[C@@H]2n1cc(-c2cnc(-c3cccc(-c4cnn(C)c4)c3)nc2)cn1

["6.00 to 7.00", "6.00 to 7.00", "6.00 to 7.00", "6.00 to 7.00", "5.30 to 6.00"]

---

# systemTested: IRAK4 (Homo sapiens)
# Construct: His (N); TEV cleavage site (N)
# assay: IRAK4 Enzymatic Assay
# assaySetup: His-TEV-IRAK4 20 ng/well, ATP 2 μM, STK1-biotin peptide 300 nM, 3 hours at 30° C., FlashPlate radioactivity
endpointName: IC50

Please review the entries below; each comes with its answer.
CC(=O)N1CC[C@@H](n2cc(-c3cnc(-c4cccc(-c5cnn(C)c5)c4)nc3)cn2)[C@H](O)C1 (single isomer, unassigned) [Example 226] ... 0.1 to 1 µM
Cn1cc(-c2cccc(-c3ncc(-c4cnn(C5CCN(C(=O)C6CC(O)C6)CC5)c4)cn3)c2)cn1 (centres unmarked) [Example 120] ... 0.1 to 1 µM
CC(=O)N1CC[C@@H](n2cc(-c3cnc(-c4cccc(-c5cnn(C)c5)c4)nc3)cn2)C1 [Example 130] ... 1 to 5 µM
Cn1cc(-c2cccc(-c3ncc(-c4cnn([C@H]5CC[C@@]6(CC5)CNC(=O)C6)c4)cn3)c2)cn1 [Example 286] ... < 0.1 µM
Cc1nn(C2CCC(O)CC2)cc1-c1cnc(-c2cccc(-c3cnn(C)c3)c2)nc1 (centres unmarked) [Example 291] ... 0.1 to 1 µM

Dear reader, for each entry below, please note its IC50.
1. Cn1cc(-c2cccc(-c3ncc(-c4cnn([C@H]5CC[C@H](C(=O)N6CC[C@@H](O)C6)CC5)c4)cn3)c2)cn1 [Example 186]
2. CN1C[C@]2(CC[C@@H](n3cc(-c4cnc(-c5cccc(-c6cnn(C)c6)c5)nc4)cn3)CC2)CC1=O [Example 262]
3. Cn1cc(-c2cccc(-c3ncc(-c4cnn([C@H]5CC[C@H](N6CCOCC6)CC5)c4)cn3)c2)cn1 [Example 208]
4. Cn1cc(-c2cccc(-c3ncc(-c4cnn(C5CCC(C(=O)N6CCO[C@@H](CO)C6)CC5)c4)cn3)c2)cn1 (some centres unmarked) [Example 266]

["< 0.1 µM", "< 0.1 µM", "< 0.1 µM", "< 0.1 µM"]

Dear reader, for each entry below, please note its IC50.
1. Cn1cc(-c2cccc(-c3ncc(-c4cnn(CC(=O)N5C6CCC5CC(O)C6)c4)cn3)c2)cn1 (centres unmarked) [Example 128]
2. Cn1cc(-c2cccc(-c3ncc(-c4cnn(C5CCC6(CCC(=O)N6)CC5)c4)cn3)c2)cn1 (single isomer, unassigned) [Example 251]
3. OCc1cc(-c2cccc(-c3ncc(-c4cnn(C5CCOCC5)c4)cn3)c2)ccn1 [Example 151]
4. CC(O)CCNC(=O)[C@H]1CC[C@H](n2cc(-c3cnc(-c4cccc(-c5cnn(C)c5)c4)nc3)cn2)CC1 (some centres unmarked) [Example 228]
5. Cn1cc(-c2cccc(-c3ncc(-c4cnn(C5COC5)c4)cn3)c2)cn1 [Example 141]

0.1 to 1 µM
0.1 to 1 µM
0.1 to 1 µM
< 0.1 µM
0.1 to 1 µM

---

# systemTested: IRAK4 (Homo sapiens, UniProt Q9NWZ3)
# Construct: His (N); TEV cleavage site (N)
# Sequence (Q9NWZ3 1-460): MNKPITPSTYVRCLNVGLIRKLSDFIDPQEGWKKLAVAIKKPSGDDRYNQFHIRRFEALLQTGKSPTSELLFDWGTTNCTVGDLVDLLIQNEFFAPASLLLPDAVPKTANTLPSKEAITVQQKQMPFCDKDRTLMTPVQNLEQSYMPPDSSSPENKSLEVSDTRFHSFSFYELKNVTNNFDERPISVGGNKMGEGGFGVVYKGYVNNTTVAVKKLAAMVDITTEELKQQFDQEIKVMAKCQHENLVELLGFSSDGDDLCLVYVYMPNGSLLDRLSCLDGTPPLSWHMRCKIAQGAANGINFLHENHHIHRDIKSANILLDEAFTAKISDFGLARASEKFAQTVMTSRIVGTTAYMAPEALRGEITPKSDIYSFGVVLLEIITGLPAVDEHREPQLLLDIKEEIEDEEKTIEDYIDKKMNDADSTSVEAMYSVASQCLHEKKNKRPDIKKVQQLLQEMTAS
# assay: IRAK4 Enzymatic Assay
# assaySetup: His-TEV-IRAK4 20 ng/well, ATP 2 μM, STK1-biotin peptide 300 nM, 3 hours at 30° C., FlashPlate radioactivity
pIC50: −log10 of the molar value. Structures can show the parent of a compound that is named as a salt.
endpointName: pIC50

Please review the entries below; each comes with its answer.
Cc1c(-c2cccc(-c3ncc(-c4cnn(C5CCNCC5)c4)cn3)c2)cnn1C [Example 15, hydrochloride] ... 6.00 to 7.00
Cn1cc(-c2cccc(-c3ncc(-c4cnn(C5CCN(C(=O)C6CCOC6)CC5)c4)cn3)c2)cn1 (stereo not shown) ... 6.00 to 7.00
O=C(Cn1cc(-c2cnc(-c3cccc(-c4cnco4)c3)nc2)cn1)N1CCOCC1 ... 6.00 to 7.00

// moving on: another record for pIC50
Returns the measured pIC50 for the input compound. Input: O=C(Cn1cc(-c2cnc(-c3cccc(-c4ccncc4)c3)nc2)cn1)N1CCCC1
5.30 to 6.00

---

# systemTested: IRAK4 (Homo sapiens, UniProt Q9NWZ3)
# Construct: His (N); TEV cleavage site (N)
# assay: IRAK4 Enzymatic Assay
# assaySetup: His-TEV-IRAK4 20 ng/well, ATP 2 μM, STK1-biotin peptide 300 nM, 3 hours at 30° C., FlashPlate radioactivity
Where a name gives a salt, the structure may show the parent alone.
endpointName: IC50

CC(=O)N1CC[C@H](n2cc(-c3cnc(-c4cccc(-c5cnn(C)c5)c4)nc3)cn2)C1 ... 0.1 to 1 µM
Cn1cc(-c2cccc(-c3ncc(-c4cnn(C[C@@H]5CCCN5)c4)cn3)c2)cn1 [Example 70, hydrochloride] ... 1 to 5 µM
Cn1cc(-c2cccc(-c3ncc(-c4cnn(C5CCSC5)c4)cn3)c2)cn1 (stereo not shown) ... 0.1 to 1 µM

// moving on: another record for IC50
Returns the measured IC50 for the input compound. Input: Cn1cc(-c2cccc(-c3ncc(-c4cnn(CC5CNCCO5)c4)cn3)c2)cn1 (stereo not shown) [Example 41, hydrochloride]
0.1 to 1 µM
